# System: MCF-7 cells
# METHOD DESCRIPTION: alamarBlue cell viability assay, MCF-7
# Type: cell-based
# SETTINGS: Homo sapiens, MCF7, 72 h, read-out: MCF-7 IC50 ± SEM
For each record, write down the corresponding IC50.

Ask | What value of IC50 has been reported for the following molecule? Cl.N=C(N)Nc1ccc(Oc2cccc(Nc3ccc(Cl)c(C(F)(F)F)c3)c2)cc1
Reply | 2.02 µM

Ask | What value of IC50 has been reported for the following molecule? N=C(N)Oc1ccc(Oc2cccc(Nc3ccc(Cl)c(C(F)(F)F)c3)c2)cc1
Reply | 7.32 µM

Ask | What value of IC50 has been reported for the following molecule? CNC(=O)c1cc(Oc2ccc(NC(=O)Nc3ccc(Cl)c(C(F)(F)F)c3)cc2)ccn1 [Sorafenib, reference compound]
Reply | 3.07 µM

Ask | What value of IC50 has been reported for the following molecule? Cl.Cl.N=C(N)Nc1ccc(Oc2cccc(NC(=N)Nc3ccc(Cl)c(C(F)(F)F)c3)c2)cn1
Reply | 4.91 µM

Ask | What value of IC50 has been reported for the following molecule? Cl.N=C(N)Nc1ccc(Oc2cccc(Nc3ccc(Cl)c(C(F)(F)F)c3)c2)cn1
Reply | 3.73 µM

Ask | What value of IC50 has been reported for the following molecule? N=C(N)Nc1ccc(Oc2cccc(NC(=N)Nc3ccc(Cl)c(C(F)(F)F)c3)c2)cc1
Reply | 9.3 µM
